# PARTICULARS: 303.15 K; 101.33 kPa; Liquid; Capillary tube (Ostwald / Ubbelohde) method
Please respond with reported kinematic viscosity for every item in the list.
Kindly answer with a numeric value in m2/s, unit omitted.

Please give the measured kinematic viscosity for this compound: Fc1c(F)c(F)c(F)c(F)c1F [hexafluorobenzene] 5.35e-07

For FC(F)(F)C(F)(F)C(F)(F)C(F)(F)C(F)(F)C(F)(F)C(F)(F)C(F)(F)C(F)(F)F [eicosafluorononane] then? 9.11e-07

For FC(F)(F)C(F)(F)C(F)(F)C(F)(F)C(F)(F)C(F)(F)C(F)(F)C(F)(F)Br [1-bromoperfluorooctane] then? 9.96e-07

For FC(F)(F)C(F)(F)C(F)(F)C(F)(F)C(F)(F)C(F)(F)C(F)(F)C(F)(F)F [octadecafluorooctane] then? 6.56e-07

For Fc1c(F)c(F)c(C(F)(F)F)c(F)c1F [octafluorotoluene] then? 5.51e-07

For FC(F)(F)C(F)(F)C(F)(F)C(F)(F)C(F)(F)C(F)(F)F [perfluorohexane] then? 3.97e-07

For FC1(F)C(F)(F)C(F)(F)C2(F)C(F)(F)C(F)(F)C(F)(F)C(F)(F)C2(F)C1(F)F (centres undefined) [perfluorodecalin] then? 2.45e-06

For FC(F)(F)C(F)(F)C(F)(F)C(F)(F)C(F)(F)C(F)(F)C(F)(F)F [hexadecafluoroheptane] then? 5.12e-07

For FC(F)(F)C1(F)C(F)(F)C(F)(F)C(F)(F)C(F)(F)C1(F)F [perfluoro(methylcyclohexane)] then? 8.43e-07

---

Please respond with reported kinematic viscosity for every item in the list.
# PARTICULARS: 313.15 K; 101.33 kPa; Liquid; Capillary tube (Ostwald / Ubbelohde) method
Kindly answer with a numeric value in m2/s, unit omitted.

Please give the measured kinematic viscosity for this compound: FC(F)(F)C(F)(F)C(F)(F)C(F)(F)C(F)(F)C(F)(F)C(F)(F)C(F)(F)Br 8.37e-07

For FC(F)(F)C(F)(F)C(F)(F)C(F)(F)C(F)(F)C(F)(F)C(F)(F)F then? 4.48e-07

For FC1(F)C(F)(F)C(F)(F)C2(F)C(F)(F)C(F)(F)C(F)(F)C(F)(F)C2(F)C1(F)F (centres undefined) then? 1.92e-06

For FC(F)(F)C(F)(F)C(F)(F)C(F)(F)C(F)(F)C(F)(F)F then? 3.57e-07

For Fc1c(F)c(F)c(C(F)(F)F)c(F)c1F then? 4.84e-07

For FC(F)(F)C(F)(F)C(F)(F)C(F)(F)C(F)(F)C(F)(F)C(F)(F)C(F)(F)C(F)(F)F then? 7.73e-07

For FC(F)(F)C(F)(F)C(F)(F)C(F)(F)C(F)(F)C(F)(F)C(F)(F)C(F)(F)F then? 5.65e-07

For FC(F)(F)C1(F)C(F)(F)C(F)(F)C(F)(F)C(F)(F)C1(F)F then? 7.22e-07

For Fc1c(F)c(F)c(F)c(F)c1F then? 4.5e-07

---

Please respond with reported kinematic viscosity for every item in the list.
# PARTICULARS: 318.15 K; 101.33 kPa; Liquid; Capillary tube (Ostwald / Ubbelohde) method
Kindly answer with a numeric value in m2/s, unit omitted.

Please give the measured kinematic viscosity for this molecule: Fc1c(F)c(F)c(F)c(F)c1F [hexafluorobenzene] 4.23e-07

For FC(F)(F)C(F)(F)C(F)(F)C(F)(F)C(F)(F)C(F)(F)C(F)(F)C(F)(F)C(F)(F)F [eicosafluorononane] then? 7.14e-07

For FC1(F)C(F)(F)C(F)(F)C2(F)C(F)(F)C(F)(F)C(F)(F)C(F)(F)C2(F)C1(F)F (centres undefined) [perfluorodecalin] then? 1.71e-06

For Fc1c(F)c(F)c(C(F)(F)F)c(F)c1F [octafluorotoluene] then? 4.57e-07

For FC(F)(F)C(F)(F)C(F)(F)C(F)(F)C(F)(F)C(F)(F)F [perfluorohexane] then? 3.43e-07

For FC(F)(F)C(F)(F)C(F)(F)C(F)(F)C(F)(F)C(F)(F)C(F)(F)C(F)(F)Br [1-bromoperfluorooctane] then? 7.51e-07

For FC(F)(F)C1(F)C(F)(F)C(F)(F)C(F)(F)C(F)(F)C1(F)F [perfluoro(methylcyclohexane)] then? 6.84e-07

For FC(F)(F)C(F)(F)C(F)(F)C(F)(F)C(F)(F)C(F)(F)C(F)(F)F [hexadecafluoroheptane] then? 4.34e-07

For FC(F)(F)C(F)(F)C(F)(F)C(F)(F)C(F)(F)C(F)(F)C(F)(F)C(F)(F)F [octadecafluorooctane] then? 5.27e-07

---

Please respond with reported kinematic viscosity for every item in the list.
# PARTICULARS: 298.15 K; 101.33 kPa; Liquid; Capillary tube (Ostwald / Ubbelohde) method
Kindly answer with a numeric value in m2/s, unit omitted.

Please give the measured kinematic viscosity for this compound: FC(F)(F)C(F)(F)C(F)(F)C(F)(F)C(F)(F)C(F)(F)C(F)(F)C(F)(F)Br [1-bromoperfluorooctane] 1.06e-06

For FC(F)(F)C(F)(F)C(F)(F)C(F)(F)C(F)(F)C(F)(F)F [perfluorohexane] then? 4.17e-07

For Fc1c(F)c(F)c(F)c(F)c1F [hexafluorobenzene] then? 5.81e-07

For FC(F)(F)C(F)(F)C(F)(F)C(F)(F)C(F)(F)C(F)(F)C(F)(F)F [hexadecafluoroheptane] then? 5.43e-07

For FC1(F)C(F)(F)C(F)(F)C2(F)C(F)(F)C(F)(F)C(F)(F)C(F)(F)C2(F)C1(F)F (centres undefined) [perfluorodecalin] then? 2.8e-06

For Fc1c(F)c(F)c(C(F)(F)F)c(F)c1F [octafluorotoluene] then? 5.88e-07

For FC(F)(F)C(F)(F)C(F)(F)C(F)(F)C(F)(F)C(F)(F)C(F)(F)C(F)(F)C(F)(F)F [eicosafluorononane] then? 1e-06

For FC(F)(F)C1(F)C(F)(F)C(F)(F)C(F)(F)C(F)(F)C1(F)F [perfluoro(methylcyclohexane)] then? 9.31e-07

For FC(F)(F)C(F)(F)C(F)(F)C(F)(F)C(F)(F)C(F)(F)C(F)(F)C(F)(F)F [octadecafluorooctane] then? 7.11e-07

---

# PARTICULARS: 308.15 K; 101.33 kPa; Liquid; Capillary tube (Ostwald / Ubbelohde) method
PROPERTY MEASURED: kinematic viscosity (m2/s)
Kindly answer with a numeric value in m2/s, unit omitted.

Please give the measured kinematic viscosity for this compound: FC(F)(F)C1(F)C(F)(F)C(F)(F)C(F)(F)C(F)(F)C1(F)F [perfluoro(methylcyclohexane)] 7.72e-07

For FC(F)(F)C(F)(F)C(F)(F)C(F)(F)C(F)(F)C(F)(F)F [perfluorohexane] then? 3.72e-07

For FC(F)(F)C(F)(F)C(F)(F)C(F)(F)C(F)(F)C(F)(F)C(F)(F)C(F)(F)C(F)(F)F [eicosafluorononane] then? 8.33e-07

For Fc1c(F)c(F)c(C(F)(F)F)c(F)c1F [octafluorotoluene] then? 5.16e-07

For FC(F)(F)C(F)(F)C(F)(F)C(F)(F)C(F)(F)C(F)(F)C(F)(F)F [hexadecafluoroheptane] then? 4.82e-07

For FC1(F)C(F)(F)C(F)(F)C2(F)C(F)(F)C(F)(F)C(F)(F)C(F)(F)C2(F)C1(F)F (centres undefined) [perfluorodecalin] then? 2.16e-06

For FC(F)(F)C(F)(F)C(F)(F)C(F)(F)C(F)(F)C(F)(F)C(F)(F)C(F)(F)Br [1-bromoperfluorooctane] then? 9.05e-07

For FC(F)(F)C(F)(F)C(F)(F)C(F)(F)C(F)(F)C(F)(F)C(F)(F)C(F)(F)F [octadecafluorooctane] then? 6.08e-07

For Fc1c(F)c(F)c(F)c(F)c1F [hexafluorobenzene] then? 4.91e-07

Data provenance is the NIST ThermoML archive (doi:10.1021/je700632z).
